measured endpoint: melting point

[ask] Entry under review: CC(C#N)(COc1cc(F)c(F)cc1-c1ccsc1)NC(=O)c1ccc(OC(F)(F)F)cc1 (centres undefined) . Reported melting point?
[reply] 128 to 130 °C

[ask] Also Cc1ccc(C2C=C3C(=CCC4=C3NN(C)CC4)S2=O)cc1 (centres undefined) , if possible.
[reply] 160 to 162 °C

[ask] Also COc1ccccc1OCC(O)CNc1nc(-c2ccccc2)nc2ccccc12 (centres undefined) , if possible.
[reply] 138 to 140 °C

[ask] Also O=S(=O)(Nc1cc(Cl)sc1Cl)c1cc(-c2ncc(C(F)(F)F)cc2Cl)ccc1Cl , if possible.
[reply] 106 to 108 °C

[ask] Also CCCOc1cc(C(=O)O)cc(N)c1C(=O)c1ccccc1 , if possible.
[reply] 220 to 222 °C

[ask] Also CCOC(=O)COc1ccc(C(=O)Nc2cccc(F)c2Sc2ccccc2-c2nnn[nH]2)cc1 , if possible.
[reply] 208 to 209 °C

[ask] Also C=C(C)C(=O)NC1=NN(c2ccc(Cl)c(Cl)c2)C(=O)C1 , if possible.
[reply] 212 to 213 °C

[ask] Also CCCOc1ccc(CCCOc2nn(Cc3ccccc3)cc2CC(=O)O)c(Oc2ncc(C(F)(F)F)cc2Cl)c1 , if possible.
[reply] 96.5 to 97.5 °C

[ask] Also COc1cc(C2C(=O)N(C)Cc3cc4c(cc32)OCCO4)cc(OC)c1OC (centres undefined) , if possible.
[reply] 148 to 149 °C

###

For each of the molecules below, state its melting point.

[ask] Entry under review: CCCCc1nc(Cl)c(C(=O)O)n1Cc1ccc(-c2ccccc2I)cc1 . Reported melting point?
[reply] 175 °C

[ask] Also CC(C)c1ccc2c(c1)c(-c1ccccc1Cl)c(C(=O)O)c(=O)n2C , if possible.
[reply] 184 to 185 °C

[ask] Also Cn1nnnc1CC(c1ccccc1)c1ccccc1 , if possible.
[reply] 147 to 148 °C

[ask] Also CC#CCOc1ccc(S(=O)(=O)N(C)C(C(=O)NO)C(C)(C)SCC(C)N(CC)CC)cc1 (centres undefined) , if possible.
[reply] 65 to 68 °C

[ask] Also CS(=O)(=O)c1ccc(-c2ccc(Cl)nc2-c2ccc(F)cc2)cc1 , if possible.
[reply] 192 °C

[ask] Also CCOC(=O)Cc1nc(C)n2c1CN=C(c1ccccc1Cl)c1cc(Cl)ccc1-2 , if possible.
[reply] 143 to 154 °C

[ask] Also COc1ccc(C)c(Nc2c(C#N)cnc3c2C=C2N=C(NCCN4CCOCC4)N=C2C3)c1 , if possible.
[reply] 148 to 150 °C

[ask] Also CCC(CC)C(=O)N1CC(NC(=O)Nc2cccc(C(=O)O)c2)C(=O)N(CC(=O)c2ccccc2C)c2cc(C)ccc21 (centres undefined) , if possible.
[reply] 244 to 246 °C

[ask] Also COC(=O)CCc1cc(C(C)(C)C)c2oc(-c3ccc(-c4nc5cc(CCC(=O)OC)cc(C(C)(C)C)c5o4)s3)nc2c1 , if possible.
[reply] 144 to 145 °C

[ask] Also Cc1nnc2c(C(C)Oc3ccc(Cl)cc3)ccnn12 (centres undefined) , if possible.
[reply] 158 to 160 °C

[ask] Also OC1CC2(CCN(C3CCC3)CC2)Oc2ccccc21 (centres undefined) , if possible.
[reply] 211 to 213 °C

[ask] Also Cc1ccc(Cn2ncn(-c3nc(C)c(C(=O)NCc4csc(C(C)C)n4)s3)c2=O)cc1 , if possible.
[reply] 151 to 153 °C

[ask] Also CC1(C)Oc2ccc(C(=O)CCl)cc2S1 , if possible.
[reply] 84 to 86 °C

[ask] Also CCCCCN(CCCCC)C(=O)C(CCC(=O)O)CS(=O)(=O)c1ccc(C(C)=O)cc1 (centres undefined) , if possible.
[reply] 69 to 71 °C

[ask] Also Cc1c(Cc2cc(F)cc(Cl)c2)sc2c(-c3cccc(C(=O)NCCO)c3)cccc12 , if possible.
[reply] 146 to 147 °C

[ask] Also CC(C(=O)O)c1ccc2c(c1)C(=O)Cc1cccnc1S2 (centres undefined) , if possible.
[reply] 141 to 143 °C

[ask] Also O=C(C(=Cc1ccc(Cl)cc1)c1ccc(Cl)cc1)c1ccc(O)cc1 , if possible.
[reply] 132 to 136 °C

[ask] Also COc1cc2c(cc1Nc1ncc(Cl)c(Nc3cccc(OCC#N)c3)n1)CCOC(=O)N2C , if possible.
[reply] 227 to 229 °C

[ask] Also Cc1cc(C(N)=O)ccc1O[C@@H]1CCNC[C@H]1O (relative stereo) , if possible.
[reply] 210 to 212 °C
